# system: T1, TNFR1 (Homo sapiens, UniProt P19438)
# T1 chain: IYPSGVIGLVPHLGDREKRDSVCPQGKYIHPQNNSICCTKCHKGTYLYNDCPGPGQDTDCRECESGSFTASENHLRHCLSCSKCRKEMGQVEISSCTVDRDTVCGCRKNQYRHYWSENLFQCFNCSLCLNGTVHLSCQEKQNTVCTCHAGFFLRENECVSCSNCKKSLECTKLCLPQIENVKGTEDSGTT
# assay_procedure: yeast display SC50
readout_name: apparent Kd (screen) (nM)

>>> test_value("K71Q (designed binder) SMEEEVEKAAKEYEKKKKEAIEKHLEKLKAKDKEAAERFLKELEEAAKEYAKDEAKTMSEEEAKRRAKKYQEKVLLSELSEEEQKEIKEAEEKLVRTILKYVEEAAK")
0.446
>>> test_value("E42A (designed binder) SMEEEVEKAAKEYEKKKKEAIEKHLEKLKAKDKEAAERFLKALEEAAKEYAKDEAKTMSEEEAKRRAKKYKEKVLLSELSEEEQKEIKEAEEKLVRTILKYVEEAAK")
10.4
>>> test_value("A20K (designed binder) SMEEEVEKAAKEYEKKKKEKIEKHLEKLKAKDKEAAERFLKELEEAAKEYAKDEAKTMSEEEAKRRAKKYKEKVLLSELSEEEQKEIKEAEEKLVRTILKYVEEAAK")
0.446
>>> test_value("E34A (designed binder) SMEEEVEKAAKEYEKKKKEAIEKHLEKLKAKDKAAAERFLKELEEAAKEYAKDEAKTMSEEEAKRRAKKYKEKVLLSELSEEEQKEIKEAEEKLVRTILKYVEEAAK")
1.05
>>> test_value("K41Y (designed binder) SMEEEVEKAAKEYEKKKKEAIEKHLEKLKAKDKEAAERFLYELEEAAKEYAKDEAKTMSEEEAKRRAKKYKEKVLLSELSEEEQKEIKEAEEKLVRTILKYVEEAAK")
0.446
>>> test_value("S1V (designed binder) VMEEEVEKAAKEYEKKKKEAIEKHLEKLKAKDKEAAERFLKELEEAAKEYAKDEAKTMSEEEAKRRAKKYKEKVLLSELSEEEQKEIKEAEEKLVRTILKYVEEAAK")
0.869
>>> test_value("V74D (designed binder) SMEEEVEKAAKEYEKKKKEAIEKHLEKLKAKDKEAAERFLKELEEAAKEYAKDEAKTMSEEEAKRRAKKYKEKDLLSELSEEEQKEIKEAEEKLVRTILKYVEEAAK")
0.405
>>> test_value("E37F (designed binder) SMEEEVEKAAKEYEKKKKEAIEKHLEKLKAKDKEAAFRFLKELEEAAKEYAKDEAKTMSEEEAKRRAKKYKEKVLLSELSEEEQKEIKEAEEKLVRTILKYVEEAAK")
0.49

Attribution: paper PMC12416549
